test target: tumor necrosis factor alpha (TNFα) (human, UniProt P01375 77-233)
Sequence (P01375 77-233 limits assumed): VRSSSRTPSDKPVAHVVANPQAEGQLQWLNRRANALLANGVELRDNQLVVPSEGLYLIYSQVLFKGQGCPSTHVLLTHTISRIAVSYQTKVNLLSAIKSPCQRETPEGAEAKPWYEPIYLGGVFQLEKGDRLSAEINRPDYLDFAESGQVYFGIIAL
assay comment: affinity by IC50 ELISA (so named in paragraph 380)
Below: a set of entries, each annotated with reported Affinity.
Write the value in nM as a bare number.

Affinity reading for MAb 1066 (antibody, V domains shown, IgG1/kappa, CHO; also called H1487/L250) VH: EVQLLESGGGLIQPGGSLRLSCAASGFTVSSNYMSWVRQAPGKGLEWVSVIYSGGRTYYADSVKGRFTISRDSSKNTLYLQMNSLRAEDTAVYYCARNYYGSTLDYWGQGTLVTVSS VL: EIVLTQSPVTLSVPPGERASLSCRASQNIYTAVAWYQQKPGQAPRLLIYGASTRATGIPARFSGGGSGTDYTLTISSLESEDFAVYHCQQYHSWPLTFGGGTKLEIK : 0.13

Affinity reading for MAb 1028 (antibody, V domains shown, IgG1/kappa, CHO; also called H1478/L250) VH: EVQLLESGGGLIQPGGSLRLSCAASGFTVSSNYMSWVRQAPGKGLEWVSVIYSGGRTYYADSVKGRFTISRDSSKNTLYLQMNSLRAEDTAVYYCARTYYGSTYDYWGQGTLVTVSS VL: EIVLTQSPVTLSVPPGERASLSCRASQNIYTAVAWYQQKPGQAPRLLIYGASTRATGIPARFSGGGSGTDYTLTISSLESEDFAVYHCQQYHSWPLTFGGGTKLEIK : 0.32

Affinity reading for MAb 1037 (antibody, V domains shown, IgG1/kappa, CHO; also called H1482/L250) VH: EVQLLESGGGLIQPGGSLRLSCAASGFTVSSNYMSWVRQAPGKGLEWVSVIYSGGRTYYADSVKGRFTISRDSSKNTLYLQMNSLRAEDTAVYYCARNYYGSTFDYWGQGTLVTVSS VL: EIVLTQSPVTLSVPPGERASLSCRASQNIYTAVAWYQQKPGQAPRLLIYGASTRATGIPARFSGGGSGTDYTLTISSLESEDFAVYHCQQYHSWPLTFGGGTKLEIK : 0.12

Affinity reading for MAb 1132 (antibody, V domains shown, IgG1/kappa, CHO; also called H1518/L250) VH: EVQLLESGGGLIQPGGSLRLSCAASGFTVSSNYMSWVRQAPGKGLEWVSVIYSGGRTYYADSVKGRFTISRDSSKNTLYLQMNSLRAEDTAVYYCARNYYGSTHDYWGQGTLVTVSS VL: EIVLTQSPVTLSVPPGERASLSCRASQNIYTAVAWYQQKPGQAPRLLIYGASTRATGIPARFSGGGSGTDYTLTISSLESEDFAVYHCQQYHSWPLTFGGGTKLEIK : 0.1

In the following, a different binder is considered.
Affinity reading for MAb 874 (antibody, V domains shown, IgG1/kappa, CHO; also called H1373/L250) VH: EVQLLESGGGLIQPGGSLRLSCAASGFTVSSNYMSWVRQAPGKGLEWVSVIYSGGRTYYADSVKGRFTISRDSSKNTLYLQMNSLRAEDTAVYYCARNYAGSTYDYWGQGTLVTVSS VL: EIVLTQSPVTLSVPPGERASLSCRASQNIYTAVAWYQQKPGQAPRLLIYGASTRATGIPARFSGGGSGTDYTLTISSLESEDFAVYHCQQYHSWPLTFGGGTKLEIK : 0.56
